- Measured Target: DNMT3B PWWP domain (human, UniProt Q9UBC3 206-355)
- Sequence (Q9UBC3 206-355): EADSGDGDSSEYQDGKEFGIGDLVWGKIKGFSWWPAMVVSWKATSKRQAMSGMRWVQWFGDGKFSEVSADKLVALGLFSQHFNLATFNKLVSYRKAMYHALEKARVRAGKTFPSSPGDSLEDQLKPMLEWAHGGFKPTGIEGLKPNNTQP
- Protocol Description: fluorescence polarization
Result Type: pKd
pKd field: float, defined as -log10 of concentration (mol/L).

Task: Supply recorded pKd for 30-bp FAM dsDNA (dsDNA) DNA 1: CTGAATACTACTTGCGCTCTCTAACCTGAT DNA 2: ATCAGGTTAGAGAGCGCAAGTAGTATTCAG here.
Result: 5.04
